System: Staphylococcus aureus ATCC 5 638 Pen-Sensible = UC 1061
Measurement Notes: MIC, dilution in liquid medium
Type: cell-based
Condition: 24 h
Readout Label: MIC (µg/mL)

{"columns": ["Compound", "Number"],
 "data": [
  ["CCO/N=C(\\C(=O)N[C@@H]1C(=O)N2C(C(=O)O)=C(COC(C)=O)CS[C@H]12)c1csc(N)n1", 2],
  ["CCO/N=C(/C(=O)NC1C(=O)N2C(C(=O)O)=C(COC(C)=O)CSC12)c1csc(N)n1 (centres unmarked)", 20],
  ["C=CCO/N=C(\\C(=O)N[C@@H]1C(=O)N2C(C(=O)O)=C(COC(C)=O)CS[C@H]12)c1csc(N)n1", 1],
  ["CO/N=C(/C(=O)NC1C(=O)N2C(C(=O)O)=C(COC(C)=O)CSC12)c1csc(N)n1 (centres unmarked)", 40],
  ["C=CO/N=C(\\C(=O)NC1C(=O)N2C(C(=O)O)=C(COC(C)=O)CSC12)c1csc(N)n1 (centres unmarked)", 1]
]}
